Subject Of Test: Mitogen-activated protein kinase 14 (Homo sapiens)
Experimental Details: Inhibition of recombinant human His-tagged P38 alpha MAPK (1 to 360 residues) expressed in Escherichia coli incubated for 60 mins by [gamma-33P]ATP based scintillation counting method
Measured Attribute: IC50

NC(=O)[C@H](CC1CCCCC1)NC(=O)c1ccc(CNC(=O)c2cnn(-c3ccccc3)c2C(F)(F)F)cc1 > 500 nM

## Task # lookup: IC50 of "NC(=O)[C@H](CCC1CCCCC1)NC(=O)c1cnc(CNC(=O)c2cnn(-c3ccccc3)c2)s1"
## Result 31 nM

## Task # lookup: IC50 of "CCCC[C@H](NC(=O)c1ccc(C)c(NC(=O)c2ccc(-c3ccccc3Cl)s2)c1)C(N)=O"
## Result > 500 nM

## Task # lookup: IC50 of "CC(C)(NC(=O)c1cnc(CNC(=O)c2cnn(-c3ccccc3)c2N)s1)C(N)=O"
## Result > 500 nM

###

Subject Of Test: Mitogen-activated protein kinase 14 (Homo sapiens, UniProt Q16539)
Sequence (Q16539 whole entry, the tested form may be a part): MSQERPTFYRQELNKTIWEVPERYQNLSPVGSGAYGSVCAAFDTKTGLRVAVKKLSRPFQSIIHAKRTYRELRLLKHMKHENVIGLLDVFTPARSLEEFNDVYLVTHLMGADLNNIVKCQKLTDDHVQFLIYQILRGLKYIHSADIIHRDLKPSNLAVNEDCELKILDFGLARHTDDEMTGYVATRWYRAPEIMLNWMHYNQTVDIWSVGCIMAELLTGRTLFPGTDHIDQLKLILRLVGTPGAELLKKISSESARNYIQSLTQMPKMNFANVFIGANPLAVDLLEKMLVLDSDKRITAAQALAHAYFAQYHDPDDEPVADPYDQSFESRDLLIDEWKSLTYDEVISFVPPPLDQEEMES
Experimental Details: Inhibition of full-length human C-terminal NanoLuc-tagged P38 alpha MAPK expressed in human HEK293T cells incubated for 2 hrs followed by NanoBRET NanoGlo Substrate addition by NanoBRET assay
Type: cell-based
Measured Attribute: pIC50
// returns pIC50 (minus log10 of molar concentration), number only

## Task # lookup: pIC50 of "O=C(NCCCC1CCCCC1)c1ccc(CNC(=O)c2cnn(-c3ccccc3)c2C(F)(F)F)cc1"
## Result 4.89

###

Subject Of Test: Mitogen-activated protein kinase 14 (Homo sapiens, UniProt Q16539)
Experimental Details: Inhibition of recombinant human His-tagged P38 alpha MAPK (1 to 360 residues) expressed in Escherichia coli incubated for 60 mins by [gamma-33P]ATP based scintillation counting method
Measured Attribute: pIC50
// returns pIC50 (minus log10 of molar concentration), number only

Examples with their reported pIC50 follow.
Entry Smiles	pIC50
Nc1c(C(=O)NCc2ncc(C(=O)NC3CC3)s2)cnn1-c1ccccc1	8.05
Nc1c(C(=O)NCc2ccc(C(=O)NC3CC3)cc2)cnn1-c1ccccc1	6.60

Moving on to the next compound.
## Task # lookup: pIC50 of "CC(C)CCCNC(=O)c1ccc(CNC(=O)c2cnn(-c3ccccc3)c2N)cc1"
## Result 7.33

###

Subject Of Test: UniProt:Q9UK32
Sequence (Q9UK32 whole entry, the tested form may be a part): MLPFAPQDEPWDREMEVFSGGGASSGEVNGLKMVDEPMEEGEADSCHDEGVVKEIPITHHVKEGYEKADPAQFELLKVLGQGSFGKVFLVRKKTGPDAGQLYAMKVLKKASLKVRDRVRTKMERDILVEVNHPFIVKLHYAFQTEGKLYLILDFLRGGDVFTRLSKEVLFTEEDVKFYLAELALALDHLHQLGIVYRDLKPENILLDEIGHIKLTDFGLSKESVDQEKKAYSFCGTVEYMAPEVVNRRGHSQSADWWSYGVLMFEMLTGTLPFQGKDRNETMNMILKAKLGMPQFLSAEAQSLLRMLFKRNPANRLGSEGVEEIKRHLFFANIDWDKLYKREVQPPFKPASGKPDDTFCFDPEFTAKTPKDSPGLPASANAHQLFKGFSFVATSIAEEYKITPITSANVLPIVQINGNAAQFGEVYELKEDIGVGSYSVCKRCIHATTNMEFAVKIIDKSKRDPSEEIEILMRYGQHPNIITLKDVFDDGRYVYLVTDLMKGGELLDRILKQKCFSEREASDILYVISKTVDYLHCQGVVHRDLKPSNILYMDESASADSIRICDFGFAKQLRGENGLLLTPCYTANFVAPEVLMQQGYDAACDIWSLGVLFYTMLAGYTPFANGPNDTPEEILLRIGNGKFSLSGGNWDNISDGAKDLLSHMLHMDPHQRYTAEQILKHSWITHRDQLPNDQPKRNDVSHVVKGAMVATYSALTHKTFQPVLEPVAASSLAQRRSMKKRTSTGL
Experimental Details: Inhibition of RSK4 kinase domain 1 (unknown origin) expressed in human HEK293 cells incubated for 2 hrs followed by NanoBRET NanoGlo Substrate addition by NanoBRET assay
Measured Attribute: pIC50
// returns pIC50 (minus log10 of molar concentration), number only

## Task # lookup: pIC50 of "Nc1c(C(=O)NCc2ccc(C(=O)NCCCC3CCCCC3)cc2)cnn1-c1ccccc1"
## Result 4.85

###

The following compounds each carry a recorded ΔTm for Mitogen-activated protein kinase 11 (Homo sapiens, UniProt Q15759).
The figure you give is taken to be in °C; do not add the unit.

Examples with their reported ΔTm follow.
Compound	Units	Observed
CC(C)CC[C@H](NC(=O)c1cnc(CNC(=O)c2cnn(-c3ccccc3)c2N)s1)C(N)=O	°C	3.9
CC(NC(=O)c1cnn(-c2ccccc2)c1N)c1ccc(C(=O)N[C@@H](CC2CCCCC2)C(N)=O)cc1 (stereo partly drawn)	°C	1.6
NC(=O)[C@H](CCC1CCCCC1)NC(=O)c1ccc(CNC(=O)c2cnn(-c3ccccc3)c2N)cc1	°C	12.5
CC(NC(=O)c1cnn(-c2ccccc2)c1N)c1ccc(C(=O)NC(C)(C)C(N)=O)cc1 (stereo not drawn)	°C	0.7
CC(C)(NC(=O)c1cnc(CNC(=O)c2cnn(-c3ccccc3)c2N)s1)C(N)=O	°C	0.4

## Task # lookup: ΔTm of "NC(=O)[C@H](CC1CCCCC1)NC(=O)c1ccc(CNC(=O)c2cnn(-c3ccccc3)c2)cc1"
## Result 0.5

## Task # lookup: ΔTm of "Cc1ccc(C(=O)N(C)C)cc1NC(=O)c1ccc(-c2ccccc2Cl)s1"
## Result 3.7

## Task # lookup: ΔTm of "Cc1ccc(C(=O)N[C@@H](CC2CCCCC2)C(N)=O)cc1NC(=O)c1cnn(-c2ccccc2)c1N"
## Result 12.5

## Task # lookup: ΔTm of CC(NC(=O)c1cnn(-c2ccccc2)c1N)c1ccc(C(=O)NC2CC2)cc1 (stereo not drawn)
## Result 1.6

## Task # lookup: ΔTm of Cc1ccccc1-n1cc(C(=O)NC(C)c2ccc(C(=O)N[C@@H](CCC3CCCCC3)C(N)=O)cc2)cn1 (stereo partly drawn)
## Result 4.9
